test system: hGcgR (Homo sapiens)
Sequence (P47871 26-477): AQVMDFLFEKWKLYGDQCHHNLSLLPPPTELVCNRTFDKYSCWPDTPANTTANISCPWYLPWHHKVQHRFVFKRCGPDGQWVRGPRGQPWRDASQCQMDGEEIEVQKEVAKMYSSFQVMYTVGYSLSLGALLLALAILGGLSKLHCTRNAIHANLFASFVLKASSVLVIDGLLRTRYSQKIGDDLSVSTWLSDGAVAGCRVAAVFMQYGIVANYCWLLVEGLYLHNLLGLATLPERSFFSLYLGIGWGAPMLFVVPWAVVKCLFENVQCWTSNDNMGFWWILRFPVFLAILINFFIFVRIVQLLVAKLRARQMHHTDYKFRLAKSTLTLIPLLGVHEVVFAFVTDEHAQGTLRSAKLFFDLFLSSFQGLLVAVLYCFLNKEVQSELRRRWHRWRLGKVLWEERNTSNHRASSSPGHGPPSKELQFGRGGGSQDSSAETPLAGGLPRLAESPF
protocol description: Functional cAMP activation in the presence of 0.1% casein (no HSA);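 also: intracellular cAMP rise after 30 min at 37 °C, read by HTRF against a cAMP standard curve, scaled from buffer only (0%) to maximal control ligand response (100%)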
Type: cell-based
measurement setup: in the presence of 0.1% casein (no HSA); geometric mean; read-out: Relative cAMP EC50, hGcgR
Starred links: 1 amine or outer side, 2 acyl side, 3 side chain; linkers in the order of their positions; H or OH if unused. Non-standard residues stand in square brackets, D forms with d. Groups on a side chain read outwards from the residue. No end group written: not given here. *: point of attachment. C20 diacid = O=C(O)CCCCCCCCCCCCCCCCCCC(=O)*; C18 diacid = O=C(O)CCCCCCCCCCCCCCCCC(=O)*; αMePhe(2-F) = C[C@](N)(Cc1ccccc1F)C(=O)O; γGlu = O=C(O)[C@H](CCC(=O)[*:2])N[*:1]; αMe4Pal = C[C@](N)(Cc1ccncc1)C(=O)O; αMeY = C[C@](N)(Cc1ccc(O)cc1)C(=O)O; 4Pal = N[C@@H](Cc1ccncc1)C(=O)O; αMeL = CC(C)C[C@](C)(N)C(=O)O; αMeS = C[C@](N)(CO)C(=O)O; Orn = NCCC[C@H](N)C(=O)O; AEEA = NCCOCCOCC(=O)O; Aib = CC(C)(N)C(=O)O
measured endpoint: EC50 (nM)

[
  {
    "substance": "H-Y[Aib]QGTFTSDFSK[αMeL]LDKK([AEEA-γGlu-C20 diacid])AQ[Aib]AFIEYLLAGGPSSGEPPPSGG-NH2 [Example 6]",
    "result value": 6.89
  },
  {
    "substance": "H-Y[Aib]QGTFTSD[4Pal]S[Orn][αMeL]LDKK([γGlu-γGlu-C18 diacid])AQ[αMe4Pal]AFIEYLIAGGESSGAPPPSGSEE-NH2 [Example 964]",
    "result value": 2.75
  },
  {
    "substance": "H-Y[Aib]QGTFTSD[4Pal]SQ[αMeL]LDKK([Glu-γGlu-C18 diacid])AQ[αMe4Pal]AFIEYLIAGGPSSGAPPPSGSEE-NH2 [Example 1030]",
    "result value": 9.42
  },
  {
    "substance": "H-Y[Aib]QGTFTSDYSI[αMeL]LDKK([AEEA-γGlu-C20 diacid])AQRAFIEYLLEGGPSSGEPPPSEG-NH2 [Example 289]",
    "result value": 5.02
  },
  {
    "substance": "H-Y[Aib]QGTFTSD[4Pal]SQ[αMeL]LDKK([AEEA-γGlu-C18 diacid])AQ[αMe4Pal]AFIEYLIE[Aib]GPSSGAPPPSGE-NH2 [Example 881]",
    "result value": 4.09
  },
  {
    "substance": "H-Y[Aib]QGT[αMePhe(2-F)]TSD[4Pal][αMeS]I[αMeL]LD[Orn]K([AEEA-γGlu-C18 diacid])AQ[αMe4Pal]EFI[dE][αMeY]LVEGGPSSGAPPPTGE-NH2 [Example 1152]",
    "result value": 2.32
  },
  {
    "substance": "Y[Aib]QGTFTSD[4Pal]SQ[αMeL]LDKK([AEEA-γGlu-C18 diacid])AQ[αMe4Pal]AFIEYLIE[dA]GPSSGAPPPSGS-NH2 [Example 829]",
    "result value": 2.41
  },
  {
    "substance": "H-Y[Aib]QGTFTSDFSK[αMeL]LDKK([AEEA-γGlu-C18 diacid])AQ[Aib]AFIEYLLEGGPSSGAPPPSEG[AEEA]-NH2 [Example 56]",
    "result value": 2.8
  },
  {
    "substance": "H-Y[Aib]QGTFTSD[4Pal]SK[αMeL]LDKK([AEEA-γGlu-C18 diacid])AQ[Aib]AFIEYLIE[Aib]GESSGEPPPSGS-NH2 [Example 282]",
    "result value": 6.98
  },
  {
    "substance": "H-Y[Aib]QGTFTSDFS[Orn][αMeL]LDKK([AEEA-γGlu-C20 diacid])AQ[Aib]AFIEYLLE[Aib]GPSSGAPPPSEG-NH2 [Example 61]",
    "result value": 3.57
  },
  {
    "substance": "Y[Aib]QGT[αMePhe(2-F)]TSD[4Pal][αMeS]I[αMeL]LD[Orn]K([AEEA-γGlu-C18 diacid])AQ[αMe4Pal]EFI[dE][αMeY]LIEGGPSSGEPPPSGE-NH2 [Example 1141]",
    "result value": 1.15
  },
  {
    "substance": "H-Y[Aib]QGTFTSDFS[Orn][αMeL]LDKK([AEEA-γGlu-C18 diacid])AQ[Aib]AFIE[αMeY]LIEGGPSSGAPPPSGS-NH2 [Example 839]",
    "result value": 5.05
  }
]
